Assay Comment: Excitation and fluorescence emission wavelength measurement
Type: physicochemical
Conditions Used: aqueous solution: 10 mg/mL solution in DMSO diluted 500-fold with purified water
Give measured Excitation wavelength λex for each item. Keep answers brief.
I only need the number, in nm, no unit after it.

Which Excitation wavelength λex is reported for this compound? N#C/C(=C\c1ccc2c(c1)C1CCCC1N2c1ccccc1)C(=O)O (stereo not shown) [Dye 105]
451

Next compound up: COc1ccc(N2c3ccc(/C=C4\C(=O)N(c5ccc(C(=O)O)cc5)N=C4C)cc3C3CCCC32)cc1 (stereo not shown) [Dye 54]
610

Next compound up: CSc1ccc(N2c3ccc(/C=C(/C#N)C(=O)O)cc3C3CCCC32)cc1 (stereo not shown) [Dye 134]
440

Next compound up: N#C/C(=C\c1ccc2c(c1)C1CCCC1N2c1ccccc1)C(=O)O (stereo not shown) [Dye 13]
477

Next compound up: CCCCN1C(=O)/C(=c2\s/c(=C/c3ccc4c(c3)C3CCCC3N4c3ccccc3)c(=O)n2CC(=O)OCC)SC1=S (stereo not shown) [Dye 60]
563

Next compound up: O=C(O)CN1C(=O)/C(=C\c2ccc3c(c2)C2CCCC2N3c2ccccc2)SC1=S (stereo not shown) [Dye 1]
531

Next compound up: COc1ccc(N2c3ccc(/C=C(\C#N)C(=O)O)cc3C3CCCC32)cc1 (stereo not shown) [Dye 56]
437

Next compound up: CCN1c2ccc(/C=C/c3sc4ccccc4[n+]3CC(=O)O)cc2C2CCCC21 (stereo not shown) [Dye 124]
605

Next compound up: COc1cc(/C=C2\C(=O)ON=C2c2ccccc2)cc2c1N(c1ccccc1)C1CCCC21 (stereo not shown) [Dye 34]
570

Next compound up: COc1ccc2cc(N3c4ccc(/C=C/c5sc6ccccc6[n+]5CC(=O)O)cc4C4CCCC43)ccc2c1 (stereo not shown) [Dye 45]
401

Next compound up: CSc1ccc(N2c3ccc(/C=C4/SC(=S)N(CC(=O)O)C4=O)cc3C3CCCC32)cc1 (stereo not shown) [Dye 17]
527

Next compound up: CCCCN1C(=O)/C(=c2\s/c(=C/c3ccc4c(c3)C3CCCC3N4c3ccc(OC)cc3)c(=O)n2CC(=O)OCC)SC1=S (stereo not shown) [Dye 62]
450

Next compound up: CCN1C(=O)/C(=c2\s/c(=C/c3ccc4c(c3)C3CCCC3N4Cc3ccccc3)c(=O)n2CC(=O)O)SC1=S (stereo not shown) [Dye 40]
576

Next compound up: CCN1C(=O)/C(=c2\s/c(=C/c3ccc4c(c3)C3CCCC3N4c3ccc(C=C(c4ccccc4)c4ccccc4)cc3)c(=O)n2CC(=O)O)SC1=S (stereo not shown) [Dye 103]
567

Next compound up: CCN1C(=O)/C(=c2\s/c(=C/c3cc(Br)c4c(c3)C3CCCC3N4c3ccc(Br)cc3)c(=O)n2CC(=O)O)SC1=S (stereo not shown) [Dye 59]
559

Next compound up: O=C(O)CN1C(=O)/C(=C\c2ccc3c(c2)C2CCCC2N3Cc2ccccc2)SC1=S (stereo not shown) [Dye 3]
525

Next compound up: N#C/C(=C\c1ccc2c(c1)C1CCCC1N2c1ccc(C=C(c2ccccc2)c2ccccc2)cc1)C(=O)O (stereo not shown) [Dye 108]
479

Next compound up: O=C(O)CN1C(=O)/C(=C2C=C/C(=C\c3ccc4c(c3)C3CCCC3N4c3ccccc3)C\2)SC1=S (stereo not shown) [Dye 140]
510

Next compound up: O=C(O)Cn1c(=O)/c(=C\c2ccc3c(c2)C2CCCC2N3c2ccccc2)s/c1=C1/SC(=S)N(Cc2ccccc2)C1=O (stereo not shown) [Dye 66]
586

Next compound up: CCN1C(=O)/C(=c2\s/c(=C/c3ccc4c(c3)C3CCCC3N4c3ccc(OC)cc3)c(=O)n2CC)SC1=S (stereo not shown) [Dye 68]
602

Next compound up: COc1ccc2cc(N3c4ccc(/C=C5\C(=O)N(c6ccc(C(=O)O)cc6)N=C5C)cc4C4CCCC43)ccc2c1 (stereo not shown) [Dye 43]
569

Next compound up: CCN1c2ccc(/C=C3/SC(=S)N(CCC(=O)O)C3=O)cc2C2CCCC21 (stereo not shown) [Dye 123]
564

Next compound up: O=C(O)CN1C(=O)/C(=C\c2cc(Br)c3c(c2)C2CCCC2N3c2ccc(Br)cc2)SC1=S (stereo not shown) [Dye 2]
482

Next compound up: CC1=NN(c2ccc(C(=O)O)cc2)C(=O)/C1=C\c1ccc2c(c1)C1CCCC1N2Cc1ccccc1 (stereo not shown) [Dye 44]
510

Next compound up: O=C(O)C1=NN(c2ccccc2)C(=O)/C1=C\c1cc(Br)c2c(c1)C1CCCC1N2c1ccc(Br)cc1 (stereo not shown) [Dye 42]
563

Next compound up: CSc1ccc(N2c3ccc(/C=C(/C#N)C(=O)O)cc3C3CCCC32)cc1 (stereo not shown) [Dye 135]
430

Next compound up: CCN1C(=O)/C(=c2\s/c(=C/c3ccc4c(c3)C3CCCC3N4c3cccc(SC)c3)c(=O)n2CC(=O)O)SC1=S (stereo not shown) [Dye 138]
540

Next compound up: O=C(O)CCN1C(=O)/C(=C\c2ccc3c(c2)C2CCCC2N3c2ccccc2)SC1=S (stereo not shown) [Dye 129]
522

Next compound up: CCN1C(=O)/C(=c2\s/c(=C/c3ccc4c(c3)C3CCCC3N4c3ccccc3)c(=O)n2CC(=O)O)SC1=S (stereo not shown) [Dye 30]
502

Next compound up: CCN1C(=O)/C(=c2\s/c(=C/c3ccc4c(c3)C3CCCC3N4c3ccc(OC)cc3)c(=O)n2CC(=O)O)SC1=S (stereo not shown) [Dye 38]
582

Next compound up: CC1=NN(c2ccccc2)C(=O)/C1=C\c1cc(Br)c2c(c1)C1CCCC1N2c1ccc(Br)cc1 (stereo not shown) [Dye 22]
570

====

Assay Comment: Excitation and fluorescence emission wavelength measurement
Assay type: physicochemical
Design: unit not given here
Conditions Used: aqueous solution: 10 mg/mL solution in DMSO diluted 500-fold with purified water
Measured Endpoint: Stokes shift (λem − λex)
// print number alone

Which Stokes shift (λem − λex) is reported for this molecule? CCN1C(=O)/C(=c2\s/c(=C/c3ccc4c(c3)C3CCCC3N4c3ccc(C=C(c4ccccc4)c4ccccc4)cc3)c(=O)n2CC(=O)O)SC1=S (stereo not drawn) [Dye 103]
135

Next molecule up: COc1ccc(N2c3ccc(/C=C(/C#N)C(=O)O)cc3C3CCCC32)cc1 (stereo not drawn) [Dye 131]
140

Next molecule up: O=C(O)CN1C(=O)/C(=C\c2ccc3c(c2)C2CCCC2N3c2ccc(C=C(c3ccccc3)c3ccccc3)cc2)SC1=S (stereo not drawn) [Dye 88]
120

Next molecule up: COc1ccc2cc(N3c4ccc(/C=C/c5sc6ccccc6[n+]5CC(=O)O)cc4C4CCCC43)ccc2c1 (stereo not drawn) [Dye 45]
115

Next molecule up: CC1(C)C(/C=C/C=C/C=C/C=C2\N(CCCCS(=O)(=O)O)c3ccc4ccccc4c3C2(C)C)=[N+](CCCCS(=O)(=O)[O-])c2ccc3ccccc3c21 [ICG, indocyanine green, reference compound]
27

Next molecule up: O=C(O)C[n+]1c(/C=C/c2cc(Br)c3c(c2)C2CCCC2N3c2ccccc2)sc2ccccc21 (stereo not drawn) [Dye 23]
91

Next molecule up: CSc1ccc(N2c3ccc(/C=C4/SC(=S)N(CC(=O)O)C4=O)cc3C3CCCC32)cc1 (stereo not drawn) [Dye 17]
109

Next molecule up: COc1ccc(N2c3ccc(/C=C4/SC(=S)N(CCC(=O)O)C4=O)cc3C3CCCC32)cc1 (stereo not drawn) [Dye 127]
87

Next molecule up: CCN1C(=O)/C(=c2\s/c(=C/c3ccc4c(c3)C3CCCC3N4c3ccc(SC)cc3)c(=O)n2CC(=O)O)SC1=S (stereo not drawn) [Dye 18]
129

Next molecule up: C=CCN1C(=O)/C(=c2\s/c(=C/c3ccc4c(c3)C3CCCC3N4c3ccc(OC)cc3)c(=O)n2CC(=O)O)SC1=S (stereo not drawn) [Dye 132]
150

Next molecule up: O=C(O)CCN1C(=O)/C(=C\c2cc(Br)c3c(c2)C2CCCC2N3c2ccc(Br)cc2)SC1=S (stereo not drawn) [Dye 29]
57

Next molecule up: COc1ccc(N2c3ccc(/C=C/c4sc5ccccc5[n+]4CCC(=O)O)cc3C3CCCC32)cc1 (stereo not drawn) [Dye 72]
85

Next molecule up: COc1ccc(N2c3ccc(/C=C4/SC(=S)N(CC(=O)O)C4=O)cc3C3CCCC32)cc1 (stereo not drawn) [Dye 37]
77

Next molecule up: N#C/C(=C\c1ccc2c(c1)C1CCCC1N2c1ccccc1)C(=O)O (stereo not drawn) [Dye 13]
90

Next molecule up: CSc1ccc(N2c3ccc(/C=C(/C#N)C(=O)O)cc3C3CCCC32)cc1 (stereo not drawn) [Dye 134]
160

Data provenance is patent US9801960B2.
